Entry source: ChEMBL document CHEMBL4052772

target: Receptor-type tyrosine-protein kinase FLT3 (Homo sapiens, UniProt P36888)
Sequence (P36888 whole entry): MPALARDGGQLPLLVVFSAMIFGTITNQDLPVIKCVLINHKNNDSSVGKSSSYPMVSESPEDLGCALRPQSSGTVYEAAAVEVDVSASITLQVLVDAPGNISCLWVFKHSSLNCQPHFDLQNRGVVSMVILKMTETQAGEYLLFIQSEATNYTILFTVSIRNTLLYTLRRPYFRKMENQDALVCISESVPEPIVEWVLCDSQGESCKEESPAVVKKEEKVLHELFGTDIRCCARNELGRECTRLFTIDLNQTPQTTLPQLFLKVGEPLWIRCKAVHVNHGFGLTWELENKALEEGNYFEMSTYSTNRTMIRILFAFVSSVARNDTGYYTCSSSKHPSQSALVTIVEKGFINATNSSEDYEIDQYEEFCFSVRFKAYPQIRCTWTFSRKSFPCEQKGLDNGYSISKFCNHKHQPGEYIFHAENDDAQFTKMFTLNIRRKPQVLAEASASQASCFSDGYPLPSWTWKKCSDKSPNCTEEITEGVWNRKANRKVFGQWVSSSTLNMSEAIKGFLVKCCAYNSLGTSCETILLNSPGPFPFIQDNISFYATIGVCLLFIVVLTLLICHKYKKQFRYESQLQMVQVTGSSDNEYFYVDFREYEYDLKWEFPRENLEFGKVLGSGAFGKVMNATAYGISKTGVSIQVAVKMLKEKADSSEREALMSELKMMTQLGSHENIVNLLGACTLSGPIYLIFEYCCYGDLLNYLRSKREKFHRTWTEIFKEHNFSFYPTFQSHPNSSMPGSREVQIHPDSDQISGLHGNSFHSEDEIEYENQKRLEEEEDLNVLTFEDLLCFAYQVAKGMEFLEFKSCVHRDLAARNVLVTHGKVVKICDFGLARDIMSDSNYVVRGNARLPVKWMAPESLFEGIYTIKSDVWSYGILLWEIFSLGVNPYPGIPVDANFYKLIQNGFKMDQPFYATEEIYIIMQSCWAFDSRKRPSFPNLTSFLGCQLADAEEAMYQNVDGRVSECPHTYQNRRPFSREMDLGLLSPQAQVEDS
QUANTITY NAME: pIC50
// field semantics: pIC50 = negative decimal log of concentration (mol/L)

Prompt: Which value of pIC50 has been reported for COc1cc2c(Oc3ccc(NC(=O)c4nc5ccccc5n(-c5ccc(F)cc5)c4=O)cc3F)ccnc2cc1OCCCN1CCN(C)CC1 in the records?
Response: 6.57
